Sourced from patent EP4768484A1

- Assay Target: Ba/F3 BCR-ABL1 I502L (Homo sapiens, UniProt P00519+P11274, I502L)
- Construct: BCR (N-terminal fusion partner of the oncoprotein)
- Sequence (P00519 28-1130 I502L limits assumed, one chain of several): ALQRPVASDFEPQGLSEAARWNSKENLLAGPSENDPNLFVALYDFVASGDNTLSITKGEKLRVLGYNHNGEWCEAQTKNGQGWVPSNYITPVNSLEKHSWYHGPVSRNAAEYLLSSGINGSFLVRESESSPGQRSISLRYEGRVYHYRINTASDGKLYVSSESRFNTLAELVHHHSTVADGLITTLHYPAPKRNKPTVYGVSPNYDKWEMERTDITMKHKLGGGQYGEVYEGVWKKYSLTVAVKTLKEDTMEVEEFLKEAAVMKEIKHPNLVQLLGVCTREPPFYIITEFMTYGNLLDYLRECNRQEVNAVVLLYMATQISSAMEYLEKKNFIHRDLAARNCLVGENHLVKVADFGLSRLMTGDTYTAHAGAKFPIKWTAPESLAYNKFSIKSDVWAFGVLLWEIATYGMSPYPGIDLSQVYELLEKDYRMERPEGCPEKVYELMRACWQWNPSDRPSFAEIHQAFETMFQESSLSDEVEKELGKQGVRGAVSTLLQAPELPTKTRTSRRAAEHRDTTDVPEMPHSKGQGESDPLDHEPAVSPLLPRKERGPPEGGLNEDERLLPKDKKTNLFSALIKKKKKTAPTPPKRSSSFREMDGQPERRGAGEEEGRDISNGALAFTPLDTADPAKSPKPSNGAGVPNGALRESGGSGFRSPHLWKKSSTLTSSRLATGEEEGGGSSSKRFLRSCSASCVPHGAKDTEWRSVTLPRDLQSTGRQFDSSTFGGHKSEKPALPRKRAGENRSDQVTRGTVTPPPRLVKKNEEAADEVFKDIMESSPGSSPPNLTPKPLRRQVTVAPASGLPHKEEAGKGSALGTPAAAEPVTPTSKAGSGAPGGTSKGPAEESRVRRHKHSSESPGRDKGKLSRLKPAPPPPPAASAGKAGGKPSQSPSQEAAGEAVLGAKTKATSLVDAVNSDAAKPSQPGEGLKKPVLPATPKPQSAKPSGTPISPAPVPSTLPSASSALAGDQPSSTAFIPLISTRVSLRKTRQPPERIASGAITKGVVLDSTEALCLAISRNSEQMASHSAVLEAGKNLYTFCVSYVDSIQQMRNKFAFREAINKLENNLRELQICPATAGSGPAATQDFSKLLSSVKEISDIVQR
- Assay Procedure: Cell growth inhibitory activity assay (CellTiter-Glo), Ba/F3 BCR-ABL1 I502L cells
- Cond: 72 h, CTG cell viability
Provide the reported IC50 of each item.

Q. Recall the reported IC50 of C[C@@H]1COCc2nc3cc(C(=O)Nc4ccc(OC(F)(F)Cl)cc4)cc(-c4cnc5c(c4)-c4nn(CC(F)(F)F)cc4C5)c3n21 on Ba/F3 BCR-ABL1 I502L (Homo sapiens, UniProt P00519+P11274, I502L) and write it down.
A. 5 to 50 nM

Q. Recall the reported IC50 of C[C@@H]1COCc2nc3cc(C(=O)Nc4ccc(OC(F)(F)Cl)cc4)cc(-c4cnc5c(c4)-c4c(cnn4-c4nccc(C#N)n4)C5)c3n21 on Ba/F3 BCR-ABL1 I502L (Homo sapiens, UniProt P00519+P11274, I502L) and write it down.
A. 50 to 1000 nM

Q. Recall the reported IC50 of C[C@@H]1COCc2nc3cc(C(=O)Nc4ccc(OC(F)(F)Cl)cc4)cc(-c4cnc5c(c4)-c4nn(-c6ncccn6)cc4C5)c3n21 on Ba/F3 BCR-ABL1 I502L (Homo sapiens, UniProt P00519+P11274, I502L) and write it down.
A. ≤ 5 nM

Q. Recall the reported IC50 of CC(C)n1cnc2cc(C(=O)Nc3ccc(OC(F)(F)Cl)cc3)cc(-c3cnc4c(c3)C(=O)N(C)C4)c21 on Ba/F3 BCR-ABL1 I502L (Homo sapiens, UniProt P00519+P11274, I502L) and write it down.
A. 50 to 1000 nM

Q. Recall the reported IC50 of [2H]C([2H])([2H])N1Cc2ncc(-c3cc(C(=O)Nc4ccc(OC(F)(F)Cl)cc4)cc4nc5n(c34)[C@H](C)COC5)cc2C1=O on Ba/F3 BCR-ABL1 I502L (Homo sapiens, UniProt P00519+P11274, I502L) and write it down.
A. 50 to 1000 nM

Q. Recall the reported IC50 of Cc1cc(C)nc(-n2cc3c(n2)-c2cc(-c4cc(C(=O)Nc5ccc(OC(F)(F)Cl)cc5)cc5nc6n(c45)[C@H](C)COC6)cnc2C3)n1 on Ba/F3 BCR-ABL1 I502L (Homo sapiens, UniProt P00519+P11274, I502L) and write it down.
A. 5 to 50 nM

###

Provide the reported pIC50 of each item.
- Assay Target: Ba/F3 BCR-ABL1 V468F (Homo sapiens, UniProt P00519+P11274, V468F)
- Construct: BCR (N-terminal fusion partner of the oncoprotein)
- Assay Procedure: Cell growth inhibitory activity assay (CellTiter-Glo), Ba/F3 BCR-ABL1 V468F cells
- Cond: 72 h, CTG cell viability
- Experimental: In this assay, the Celltiter-Glo (CTG) kit provided by Promega was used, and it is a homogeneous cell viability assay method. The cell viability of cultured cells was measured by quantifying ATP. […] The steps of cell viability assay are as follows: • a) Cells in logarithmic growth phase were collected. Cell suspension was prepared and the cells were counted. […]
pIC50: −log10 of the molar value.

Q. For the compound C[C@@H]1COCc2nc3cc(C(=O)Nc4ccc(OC(F)(F)Cl)cc4)cc(-c4cnc5c(c4)-c4nn(-c6ncc(F)cn6)cc4C5)c3n21 , give its measured pIC50 value.
A. 7.30 to 8.30

Q. For the compound C[C@@H]1CCSc2nc3cc(C(=O)Nc4ccc(OC(F)(F)Cl)cc4)cc(-c4cnc5c(c4)C(=O)N(C)C5)c3n21 , give its measured pIC50 value.
A. 6.00 to 7.30

Q. For the compound Cc1cc(C)nc(-n2cc3c(n2)-c2cc(-c4cc(C(=O)Nc5ccc(OC(F)(F)Cl)cc5)cc5nc6n(c45)[C@H](C)COC6)cnc2C3)n1 , give its measured pIC50 value.
A. 6.00 to 7.30

Q. For the compound CC(=O)NC1CCC2c3cc(C(=O)Nc4ccc(OC(F)(F)Cl)cc4)cc(-c4cnc5c(c4)C(=O)N(C)C5)c3N(C(C)C)C12 (racemic) , give its measured pIC50 value.
A. < 6.00

Q. For the compound C[C@@H]1COCc2nc3cc(C(=O)Nc4ccc(OC(F)(F)Cl)cc4)cc(-c4cnc5c(c4)-c4nn(-c6ccccn6)cc4C5)c3n21 , give its measured pIC50 value.
A. 6.00 to 7.30

Q. For the compound C[C@@H]1COCc2nc3cc(C(=O)Nc4ccc(OC(F)(F)Cl)cc4)cc(-c4cnc5c(c4)-c4n[nH]cc4C5)c3n21 , give its measured pIC50 value.
A. 7.30 to 8.30

Q. For the compound [2H]C([2H])([2H])C([2H])(n1cc2c(n1)-c1cc(-c3cc(C(=O)Nc4ccc(OC(F)(F)Cl)cc4)cc4nc5n(c34)[C@H](C)COC5)cnc1C2)C([2H])([2H])[2H] , give its measured pIC50 value.
A. 7.30 to 8.30

Q. For the compound CC(C)n1cnc2cc(C(=O)Nc3ccc(OC(F)(F)Cl)cc3)cc(-c3cnc4c(c3)C(=O)N(C)C4)c21 , give its measured pIC50 value.
A. 6.00 to 7.30

Q. For the compound CN1Cc2ncc(-c3cc(C(=O)Nc4ccc(OC(F)(F)Cl)cc4)cc4c3C(C)(C)C(=O)N4)cc2C1=O , give its measured pIC50 value.
A. 6.00 to 7.30

Q. For the compound C[C@@H]1COCc2nc3cc(C(=O)Nc4ccc(OC(F)(F)Cl)cc4)cc(-c4cnccn4)c3n21 , give its measured pIC50 value.
A. 6.00 to 7.30

Q. For the compound C[C@@H]1COCc2nc3cc(C(=O)Nc4ccc(OC(F)(F)Cl)cc4)cc(-c4cnc5c(c4)-c4nn(-c6cncnc6)cc4C5)c3n21 , give its measured pIC50 value.
A. 6.00 to 7.30

Q. For the compound C[C@@H]1COCc2nc3cc(C(=O)Nc4ccc(OC(F)(F)Cl)cc4)cc(-c4cnc5c(c4)-c4nn(-c6cnccn6)cc4C5)c3n21 , give its measured pIC50 value.
A. 6.00 to 7.30

Q. For the compound C[C@@H]1COCc2nc3cc(C(=O)Nc4ccc(OC(F)(F)Cl)cc4)cc(-c4cnc5c(c4)C(=O)N(C)C5)c3n21 , give its measured pIC50 value.
A. 6.00 to 7.30
